# tested system: α4β7 integrin (Homo sapiens, UniProt P13612+P26010)
# Construct: a cell line RPMI-8866, which is known to express α4β7 integrin; endogenous in cells; host or cells: RPMI-8866 (human B cell line)
# Sequence (P13612 34-1032): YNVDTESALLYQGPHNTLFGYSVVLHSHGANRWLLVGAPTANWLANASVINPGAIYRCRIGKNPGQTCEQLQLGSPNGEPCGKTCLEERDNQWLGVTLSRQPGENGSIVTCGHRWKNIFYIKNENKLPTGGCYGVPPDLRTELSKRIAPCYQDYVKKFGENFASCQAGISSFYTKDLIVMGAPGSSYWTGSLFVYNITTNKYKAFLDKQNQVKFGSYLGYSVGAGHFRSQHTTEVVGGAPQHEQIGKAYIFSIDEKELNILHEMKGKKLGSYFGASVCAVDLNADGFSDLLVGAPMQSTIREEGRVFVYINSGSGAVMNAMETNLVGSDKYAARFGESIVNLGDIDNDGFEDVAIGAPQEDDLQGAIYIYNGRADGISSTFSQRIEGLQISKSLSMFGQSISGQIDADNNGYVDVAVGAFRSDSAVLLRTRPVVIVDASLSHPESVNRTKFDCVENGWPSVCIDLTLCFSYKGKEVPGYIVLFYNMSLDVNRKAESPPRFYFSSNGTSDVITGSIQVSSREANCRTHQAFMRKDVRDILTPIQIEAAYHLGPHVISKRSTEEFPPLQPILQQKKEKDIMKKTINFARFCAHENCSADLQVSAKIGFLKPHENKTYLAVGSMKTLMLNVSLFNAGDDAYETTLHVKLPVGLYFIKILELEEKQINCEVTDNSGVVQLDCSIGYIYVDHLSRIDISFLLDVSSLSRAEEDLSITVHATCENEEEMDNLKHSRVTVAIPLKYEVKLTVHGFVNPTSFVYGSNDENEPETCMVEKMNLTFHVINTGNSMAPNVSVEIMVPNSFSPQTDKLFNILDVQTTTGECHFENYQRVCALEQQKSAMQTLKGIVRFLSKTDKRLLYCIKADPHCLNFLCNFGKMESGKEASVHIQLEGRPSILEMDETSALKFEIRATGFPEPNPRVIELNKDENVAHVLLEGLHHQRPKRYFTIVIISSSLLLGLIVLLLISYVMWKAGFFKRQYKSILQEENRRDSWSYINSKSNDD
# Sequence (P26010 20-798): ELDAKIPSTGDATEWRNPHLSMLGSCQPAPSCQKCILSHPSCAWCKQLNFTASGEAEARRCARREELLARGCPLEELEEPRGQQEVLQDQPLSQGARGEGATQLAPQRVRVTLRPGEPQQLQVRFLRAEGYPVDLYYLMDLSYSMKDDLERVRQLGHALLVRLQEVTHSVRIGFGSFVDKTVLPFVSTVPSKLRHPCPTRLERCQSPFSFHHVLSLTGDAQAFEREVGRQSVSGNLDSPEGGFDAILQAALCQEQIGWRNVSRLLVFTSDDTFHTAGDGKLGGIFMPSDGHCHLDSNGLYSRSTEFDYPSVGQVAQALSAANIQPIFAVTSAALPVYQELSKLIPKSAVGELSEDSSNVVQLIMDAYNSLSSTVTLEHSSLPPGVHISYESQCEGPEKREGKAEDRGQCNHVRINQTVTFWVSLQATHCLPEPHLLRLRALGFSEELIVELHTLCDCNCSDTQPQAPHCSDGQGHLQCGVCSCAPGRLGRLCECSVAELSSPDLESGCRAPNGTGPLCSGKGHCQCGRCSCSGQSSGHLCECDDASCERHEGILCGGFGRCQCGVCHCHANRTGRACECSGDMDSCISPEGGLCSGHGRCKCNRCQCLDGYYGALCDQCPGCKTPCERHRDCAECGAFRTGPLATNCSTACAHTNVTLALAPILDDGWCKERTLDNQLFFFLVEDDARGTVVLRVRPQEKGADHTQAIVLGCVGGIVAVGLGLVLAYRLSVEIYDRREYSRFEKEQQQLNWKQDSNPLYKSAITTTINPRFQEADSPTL
# assay details: MAdCAM-1/α4β7 integrin binding inhibitory activity evaluation test in presence of serum
# Assay type: cell-based
# condition set: RPMI-8866 cells, recombinant mouse MAdCAM-1/Fc, 50% human serum; read-out: α4β7 Serum Added IC50
measured attribute: IC50 (nM)

{"compound": "Cc1cn(C)c(=O)n(-c2ccc(C[C@H](NC(=O)c3cc(F)c(NS(=O)(=O)c4ccc(NC(=O)C(C)(C)C)s4)cc3F)C(=O)O)cn2)c1=O", "output unit": "nM", "IC50": 37}
{"compound": "Cn1c(=O)n(-c2ccc(C[C@H](NC(=O)c3cc(F)c(NS(=O)(=O)c4ccc(NC(=O)C(C)(C)C)s4)cc3F)C(=O)O)cc2)c(=O)c2ccncc21", "output unit": "nM", "IC50": 4.5}
{"compound": "Cc1cn(C)c(=O)n(-c2ccc(C[C@H](NC(=O)c3cc(F)c(NS(=O)(=O)c4ccc(NC(=O)C5(C#N)CC5)cc4)cc3F)C(=O)O)cn2)c1=O", "output unit": "nM", "IC50": 52}
{"compound": "Cc1c(C)n(C)c(=O)n(-c2ccc(C[C@H](NC(=O)c3cc(F)c(NS(=O)(=O)c4ccc(NC(=O)C5CCOCC5)cc4)cc3F)C(=O)O)cc2)c1=O", "output unit": "nM", "IC50": 14}
{"compound": "Cc1cc(=O)n(-c2ccc(C[C@H](NC(=O)c3cc(F)c(NS(=O)(=O)c4ccc(NC(=O)C(C)(C)C)cc4)cc3F)C(=O)O)cn2)c(=O)n1C", "output unit": "nM", "IC50": 8.4}

1. Cc1c(C)n(C)c(=O)n(-c2ccc(C[C@H](NC(=O)c3cc(F)c(NS(=O)(=O)c4cc(NC(=O)C(C)(C)C)cs4)cc3F)C(=O)O)cc2)c1=O
2. CN1C(=O)N(c2ccc(S(=O)(=O)Nc3cc(F)c(C(=O)N[C@@H](Cc4ccc(-n5c(=O)c6ccncc6n(C)c5=O)nc4)C(=O)O)cc3F)cc2)C(=O)C1(C)C
Thinking about recorded IC50 values, which is higher, 1 or 2 ? # respond with the chosen item's label
1

P. Cn1c(=O)n(-c2ccc(C[C@H](NC(=O)c3cc(F)c(NS(=O)(=O)c4ccc(NC(=O)C5(c6ccccc6)CC5)cc4)cc3F)C(=O)O)cn2)c(=O)c2ccncc21
Q. CN1CCC(=O)N(c2ccc(C[C@H](NC(=O)c3cc(F)c(NS(=O)(=O)c4ccc(NC(=O)C(C)(C)C)cc4)cc3F)C(=O)O)cn2)C1=O
Select one. Lower IC50: P or Q # reply format: chosen label
Q

I. Cn1ccc(=O)n(-c2ccc(C[C@H](NC(=O)c3cc(F)c(NS(=O)(=O)c4ccc(NC(=O)C5(C#N)CC5)cc4)cc3F)C(=O)O)cn2)c1=O
II. Cc1cn(C)c(=O)n(-c2ccc(C[C@H](NC(=O)c3cc(F)c(NS(=O)(=O)c4ccc(NC(=O)C(C)(C)C)cc4)cc3F)C(=O)O)cc2)c1=O
// compare: I vs II , metric IC50, want the smaller Please reply using the label of the selected record.
II
(II: 6.6 nM, I: 93 nM)
